- Tested on: MDA-MB-231
- method: Antiproliferative activity against human MDA-MB-231 cells assessed as cell viability at 2 uM after 48 hrs by CellTiter96 AQueous assay relative to control
- Type: functional
- conditions used: read-out: Activity
Binary label based on viability at 2 µM with cut-off 9%: below gives met, not below gives not met.

Past entries and their recorded results:
CN(C)CCCNc1ncc2cc3cnccc3c(N)c2n1	met
Nc1c2ccncc2cc2cnc(NCCCN3CCCC3)nc12	not met
CNc1ncc2cc3cnccc3c([N+](=O)[O-])c2n1	not met
CN(C)CCNc1ncc2cc3cnccc3c([N+](=O)[O-])c2n1	not met
CN1CCN(CCCNc2ncc3cc4cnccc4c(N)c3n2)CC1	met

// switching to the query compound
Req: is_below(viability at 2 µM, 9%) for CN1CCN(CCNc2ncc3cc4cnccc4c(N)c3n2)CC1 ?
Resp: not met

---

- target desc: Dual specificity tyrosine-phosphorylation-regulated kinase 1A (Rattus norvegicus)
- method: Inhibition of rat DYRK1A kinase domain (1 to 499 residues) expressed in bacteria assessed as residual activity at 1 uM using KKISGRLSPIMTEQ as substrate in presence of [gamma-33P]ATP relative to control
Label true (1) when Activity is at or above 50%; otherwise label false (0).

Past entries and their recorded results:
Nc1c2ccncc2cc2cnc(-c3ccccc3)nc12	true (1)
CCN(CC)CCNc1ncc2cc3cnccc3c([N+](=O)[O-])c2n1	true (1)
Nc1c2ccncc2cc2cnc(NCCCN3CCCCC3)nc12	false (0)
O=[N+]([O-])c1c2ccncc2cc2cnc(NCCCN3CCOCC3)nc12	true (1)
Nc1c2ccncc2cc2cnc(NCCN3CCOCC3)nc12	false (0)

Req: API: above_or_equal(metric=Activity, cutoff=50%) for item Nc1c2ccncc2cc2cnc(NCCN3CCCCC3)nc12
Resp: false (0)

Req: API: above_or_equal(metric=Activity, cutoff=50%) for item CNc1ncc2cc3cnccc3c([N+](=O)[O-])c2n1
Resp: false (0)

Req: API: above_or_equal(metric=Activity, cutoff=50%) for item Nc1c2ccncc2cc2cnc(NCCN3CCCC3)nc12
Resp: true (1)

---

- target desc: Glycogen synthase kinase-3 (Sus scrofa) (UniProt B2LUN4+I6LNT8)
- method: Inhibition of porcine brain GSK-3alpha/beta assessed as residual activity at 10 uM using YRRAAVPPSPSLSRHSSPHQSpEDEEE as substrate in presence of [gamma-33P]ATP relative to control
- Format: tissue-based
- conditions used: Sus scrofa domesticus
parameter: Activity (%)
Numbers only; they are read as %.

CN1CCN(CCNc2ncc3cc4cnccc4c([N+](=O)[O-])c3n2)CC1	22
CCN(CC)CCNc1ncc2cc3cnccc3c(N)c2n1	34
O=[N+]([O-])c1c2ccncc2cc2cnc(NCCCN3CCCC3)nc12	24
CN(C)CCCNc1ncc2cc3cnccc3c(N)c2n1	10
CCN(CC)CCCNc1ncc2cc3cnccc3c(N)c2n1	22
CN(C)CCNc1ncc2cc3cnccc3c([N+](=O)[O-])c2n1	21

Req: Return Activity (reported value) for this molecule: Nc1c2ccncc2cc2cnc(NCCCN3CCCC3)nc12
Resp: 23

Req: Return Activity (reported value) for this molecule: Nc1c2ccncc2cc2cnc(NCCN3CCCC3)nc12
Resp: 29

Req: Return Activity (reported value) for this molecule: O=[N+]([O-])c1c2ccncc2cc2cnc(NCCN3CCCCC3)nc12
Resp: 1

Req: Return Activity (reported value) for this molecule: Nc1c2ccncc2cc2cnc(NCCCN3CCOCC3)nc12
Resp: 6

Req: Return Activity (reported value) for this molecule: Nc1c2ccncc2cc2cnc(NCCN3CCCCC3)nc12
Resp: 24

Req: Return Activity (reported value) for this molecule: O=[N+]([O-])c1c2ccncc2cc2cnc(NCCN3CCOCC3)nc12
Resp: 43

---

- Test system: SH-SY5Y
- method: Antiproliferative activity against human SH-SY5Y cells assessed as cell viability at 2 uM after 48 hrs by CellTiter96 AQueous assay relative to control
- Assay type: functional
- conditions used: read-out: Activity
Binary label based on viability at 2 µM with cut-off 50%: below gives label 1, not below gives label 0.

Req: is_below(viability at 2 µM, 50%) for Nc1c2ccncc2cc2cnc(NCCCN3CCCC3)nc12 ?
Resp: label 0

Req: is_below(viability at 2 µM, 50%) for CN(C)CCNc1ncc2cc3cnccc3c([N+](=O)[O-])c2n1 ?
Resp: label 1

Req: is_below(viability at 2 µM, 50%) for CN1CCN(CCNc2ncc3cc4cnccc4c(N)c3n2)CC1 ?
Resp: label 0

Req: is_below(viability at 2 µM, 50%) for Nc1c2ccncc2cc2cnc(NCCCN3CCOCC3)nc12 ?
Resp: label 1

Req: is_below(viability at 2 µM, 50%) for CNc1ncc2cc3cnccc3c([N+](=O)[O-])c2n1 ?
Resp: label 0

Req: is_below(viability at 2 µM, 50%) for CN1CCN(CCCNc2ncc3cc4cnccc4c([N+](=O)[O-])c3n2)CC1 ?
Resp: label 1

---

- target desc: Glycogen synthase kinase-3 (Sus scrofa) (UniProt B2LUN4+I6LNT8)
- method: Inhibition of porcine brain GSK-3alpha/beta assessed as residual activity at 10 uM using YRRAAVPPSPSLSRHSSPHQSpEDEEE as substrate in presence of [gamma-33P]ATP relative to control
- Type: tissue-based
- conditions used: Sus scrofa domesticus
Our labelling divides records by Activity into ranges: bucket A: < 20%; bucket B: ≥ 20% and < 30%; bucket C: ≥ 30%

Past entries and their recorded results:
O=[N+]([O-])c1c2ccncc2cc2cnc(NCCCN3CCCCC3)nc12	bucket B
O=[N+]([O-])c1c2ccncc2cc2cnc(NCCCN3CCOCC3)nc12	bucket A
O=[N+]([O-])c1c2ccncc2cc2cnc(NCCN3CCCC3)nc12	bucket C
CN(C)CCNc1ncc2cc3cnccc3c(N)c2n1	bucket C
CN1CCN(CCCNc2ncc3cc4cnccc4c([N+](=O)[O-])c3n2)CC1	bucket A
CCN(CC)CCNc1ncc2cc3cnccc3c([N+](=O)[O-])c2n1	bucket B
CN1CCN(CCNc2ncc3cc4cnccc4c(N)c3n2)CC1	bucket B
CN1CCN(CCCNc2ncc3cc4cnccc4c(N)c3n2)CC1	bucket A

Req: For CNc1ncc2cc3cnccc3c([N+](=O)[O-])c2n1 , which Activity bin applies?
Resp: bucket C

Req: For Nc1c2ccncc2cc2cnc(NCCN3CCOCC3)nc12 , which Activity bin applies?
Resp: bucket B

---

- target desc: Dual specificity tyrosine-phosphorylation-regulated kinase 1A (Rattus norvegicus)
- method: Inhibition of rat DYRK1A kinase domain (1 to 499 residues) expressed in bacteria using KKISGRLSPIMTEQ as substrate measured after 30 mins in presence of ATP by ADP-Glo kinase assay
parameter: pIC50
Value format note: pIC50 is -log10 of concentration (mol/L); just state the number.

Req: Please tell me the measured pIC50 for Nc1c2ccncc2cc2cnc(NCCN3CCOCC3)nc12 ; system: Dual specificity tyrosine-phosphorylation-regulated kinase 1A (Rattus norvegicus).
Resp: 6.71

---

- target desc: Cyclin-dependent kinase 5/CDK5 activator 1 (Homo sapiens) (UniProt Q00535+Q15078)
- Sequence (Q00535 whole entry): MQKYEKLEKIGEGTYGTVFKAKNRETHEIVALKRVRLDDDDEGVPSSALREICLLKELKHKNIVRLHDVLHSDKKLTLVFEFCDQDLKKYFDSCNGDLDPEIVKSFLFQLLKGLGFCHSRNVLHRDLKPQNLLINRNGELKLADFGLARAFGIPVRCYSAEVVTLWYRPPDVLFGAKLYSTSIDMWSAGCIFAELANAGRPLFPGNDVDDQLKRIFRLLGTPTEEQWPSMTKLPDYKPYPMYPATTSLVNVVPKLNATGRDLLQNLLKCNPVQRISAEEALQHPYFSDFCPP
- Sequence (Q15078 99-307 partner limits assumed): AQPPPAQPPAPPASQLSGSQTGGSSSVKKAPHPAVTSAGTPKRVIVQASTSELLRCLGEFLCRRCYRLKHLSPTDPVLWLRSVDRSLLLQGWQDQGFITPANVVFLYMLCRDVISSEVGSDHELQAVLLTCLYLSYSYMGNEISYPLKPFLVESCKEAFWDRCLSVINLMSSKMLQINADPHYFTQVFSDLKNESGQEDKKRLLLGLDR
- method: Inhibition of recombinant human CDK5/p25 expressed in bacteria assessed as residual activity at 1 uM using histone H1 as substrate in presence of [gamma-33P]ATP relative to control
Let's look at some molecules and their measured Activity.
Numbers only; they are read as %.

Below, each entry is followed by its recorded Activity result.
CNc1ncc2cc3cnccc3c([N+](=O)[O-])c2n1	73
Nc1c2ccncc2cc2cnc(NCCCN3CCCC3)nc12	86
CN1CCN(CCNc2ncc3cc4cnccc4c([N+](=O)[O-])c3n2)CC1	84
CN1CCN(CCCNc2ncc3cc4cnccc4c([N+](=O)[O-])c3n2)CC1	100
CN(C)CCNc1ncc2cc3cnccc3c([N+](=O)[O-])c2n1	100
O=[N+]([O-])c1c2ccncc2cc2cnc(NCCN3CCCCC3)nc12	96
Nc1c2ccncc2cc2cnc(NCCN3CCOCC3)nc12	52
O=[N+]([O-])c1c2ccncc2cc2cnc(NCCN3CCOCC3)nc12	100
CCN(CC)CCNc1ncc2cc3cnccc3c(N)c2n1	97
O=[N+]([O-])c1c2ccncc2cc2cnc(NCCCN3CCCC3)nc12	100

Req: Please tell me the measured Activity for O=[N+]([O-])c1c2ccncc2cc2cnc(NCCCN3CCCCC3)nc12 ; system: Cyclin-dependent kinase 5/CDK5 activator 1 (Homo sapiens) (UniProt Q00535+Q15078).
Resp: 100

Req: Please tell me the measured Activity for Nc1c2ccncc2cc2cnc(NCCN3CCCCC3)nc12 ; system: Cyclin-dependent kinase 5/CDK5 activator 1 (Homo sapiens) (UniProt Q00535+Q15078).
Resp: 95

---

Let's look at some compounds and their measured Activity.
- target desc: Dual specificity tyrosine-phosphorylation-regulated kinase 1A (Rattus norvegicus) (UniProt Q63470)
- method: Inhibition of rat DYRK1A kinase domain (1 to 499 residues) expressed in bacteria assessed as residual activity at 10 uM using KKISGRLSPIMTEQ as substrate in presence of [gamma-33P]ATP relative to control
Numbers only; they are read as %.

Req: Return Activity (reported value) for this compound: CCN(CC)CCCNc1ncc2cc3cnccc3c([N+](=O)[O-])c2n1
Resp: 23
